Entries and their koff
# measured.target: human EGF receptor 1 (EGFR) as used in the SPR rate analysis (UniProt P00533 25-645, limits assumed)
# experimental.details: SPR rate analysis of scFv

binder: lysine-substituted single-chain antibody "LK" containing VH0K and VL1K (L108 re-replaced with lysine) (scFv, Expressed in E. coli; also called VH0K VL1K) scFv: QVQLVQSGAEVAEPGASVQVSCAASGYTFTSYWMHWVRQAPGQGLEWMGNIYPGSGGTNYAEEFQNRVTMTRDTSISTAYMELSRLRSDDTAVYYCARSGGPYFFDYWGQGTLVTVSSGGGGSGGGGSGGGGSDIVMTQSPLSLPVTPGEPASISCRSSQNIVHNNGITYLEWYLQRPGQSPQLLIYQVSDRFSGVPDRFSGSGSGTDFTLTISRVEAEDVGVYYCFQGSHIPPTFGQGTKVEIERHHHHHH
koff, s⁻¹: 0.00853
//
binder: lysine-substituted single-chain antibody "OK" containing VH0K and VL0K (all lysine residues replaced) (scFv, Expressed in E. coli; also called VH0K VL0K) scFv: QVQLVQSGAEVAEPGASVQVSCAASGYTFTSYWMHWVRQAPGQGLEWMGNIYPGSGGTNYAEEFQNRVTMTRDTSISTAYMELSRLRSDDTAVYYCARSGGPYFFDYWGQGTLVTVSSGGGGSGGGGSGGGGSDIVMTQSPLSLPVTPGEPASISCRSSQNIVHNNGITYLEWYLQRPGQSPQLLIYQVSDRFSGVPDRFSGSGSGTDFTLTISRVEAEDVGVYYCFQGSHIPPTFGQGTEVEIERHHHHHH
koff, s⁻¹: 0.00824
//
binder: h528scFv, single-chain antibody of the humanized anti-human EGF receptor 1 (Her1) antibody 528 before lysine substitution (scFv, also called PC) scFv: QVQLVQSGAEVKKPGASVKVSCKASGYTFTSYWMHWVRQAPGQGLEWMGNIYPGSGGTNYAEKFKNRVTMTRDTSISTAYMELSRLRSDDTAVYYCARSGGPYFFDYWGQGTLVTVSSAGGGGSDIVMTQSPLSLPVTPGEPASISCRSSQNIVHNNGITYLEWYLQKPGQSPQLLIYKVSDRFSGVPDRFSGSGSGTDFTLKISRVEAEDVGVYYCFQGSHIPPTFGQGTKVEIKRAAAAEQKLISEEDLNLGGGMRGSHHHHHH
koff, s⁻¹: 0.00542
//
binder: lysine-substituted single-chain antibody "HK" containing VH1K and VL0K (H19 re-replaced with lysine) (scFv, Expressed in E. coli; also called VH1K VL0K) scFv: QVQLVQSGAEVAEPGASVKVSCAASGYTFTSYWMHWVRQAPGQGLEWMGNIYPGSGGTNYAEEFQNRVTMTRDTSISTAYMELSRLRSDDTAVYYCARSGGPYFFDYWGQGTLVTVSSGGGGSGGGGSGGGGSDIVMTQSPLSLPVTPGEPASISCRSSQNIVHNNGITYLEWYLQRPGQSPQLLIYQVSDRFSGVPDRFSGSGSGTDFTLTISRVEAEDVGVYYCFQGSHIPPTFGQGTEVEIERHHHHHH
koff, s⁻¹: 0.00805
